FYI, the data here is from patent US20230114728A1.

System: N. gonorrhoeae WHO G
EXPERIMENT: Liquid broth MIC in Fastidious broth
Assay type: cell-based
EXPERIMENTAL_CONDITIONS: Neisseria gonorrhoeae; N. gonorrhoeae strain WHO G; Fastidious broth; read-out: Minimum Inhibitory Concentration, N. gonorrhoeae WHO G

COMPOUND	MIC
O=C(O)c1ccc(C(NC(=O)N2CCN(CCNC(=O)c3ccc(O)c(O)c3Cl)C(=O)C2=O)C(=O)N[C@H]2Cc3ccc(F)c(C(=O)O)c3OB2O)cc1F (stereo partly drawn)	4 to 8 µg/mL
CCN1CCN(C(=O)NC(C(=O)N[C@H]2Cc3cccc(C(=O)O)c3OB2O)c2c(F)cc(O)cc2F)C(=O)C1=O (stereo partly drawn)	0.25 to 0.5 µg/mL
CCN1CCN(C(=O)NC(C(=O)N[C@H]2Cc3cccc(C(=O)O)c3OB2O)c2ccc(O)c(N)c2)C(=O)C1=O (stereo partly drawn)	16 to 32 µg/mL
CCN1CCN(C(=O)N[C@H](C(=O)N[C@H]2Cc3ccc(F)c(C(=O)O)c3OB2O)c2c(F)cc(O)c(O)c2Cl)C(=O)C1=O (single isomer, unassigned)	> 64 µg/mL
CCN1CCN(C(=O)NC(C(=O)N[C@H]2Cc3cccc(C(=O)O)c3OB2O)c2cc([N+](=O)[O-])c(O)cc2F)C(=O)C1=O (stereo partly drawn)	1 to 2 µg/mL
CCN1CCN(C(=O)NC(C(=O)N[C@H]2Cc3cccc(C(=O)O)c3OB2O)c2cc(F)c(C(=O)O)cc2F)C(=O)C1=O (stereo partly drawn)	1 to 2 µg/mL
NCCN1CCN(C(=O)NC(C(=O)N[C@H]2Cc3cccc(C(=O)O)c3OB2O)c2ccc(C(=O)O)cc2O)C(=O)C1=O (stereo partly drawn)	4 to 8 µg/mL
NCCN1CCN(C(=O)N[C@@H](C(=O)N[C@H]2Cc3cccc(C(=O)O)c3OB2O)c2cc(Cl)c(O)c(Cl)c2)C(=O)C1=O (single isomer, unassigned)	4 to 8 µg/mL
NCCN1CCN(C(=O)NC(C(=O)N[C@H]2Cc3cccc(C(=O)O)c3OB2O)c2c(F)cc(NS(N)(=O)=O)cc2F)C(=O)C1=O (stereo partly drawn)	16 to 32 µg/mL
NCCN1CCN(C(=O)NC(C(=O)N[C@H]2Cc3ccc(F)c(C(=O)O)c3OB2O)c2nc(N)sc2F)C(=O)C1=O (stereo partly drawn)	16 to 32 µg/mL
NC1(CN2CCN(C(=O)N[C@@H](C(=O)N[C@H]3Cc4ccc(F)c(C(=O)O)c4OB3O)c3cc(F)c(O)c(O)c3Cl)C(=O)C2=O)CC1 (single isomer, unassigned)	16 to 32 µg/mL
NCCN1CCN(C(=O)N[C@@H](C(=O)N[C@H]2Cc3cccc(C(=O)O)c3OB2O)c2ccc(O)cc2F)C(=O)C1=O (single isomer, unassigned)	4 to 8 µg/mL
CCN1CCN(C(=O)NC(C(=O)N[C@H]2Cc3cccc(C(=O)O)c3OB2O)c2ccc(C(=O)O)c(F)c2)C(=O)C1=O (stereo partly drawn)	1 to 2 µg/mL
CC(C)(C)[C@@H](NC(=O)c1c(F)cc(O)c(O)c1Cl)C(=O)N[C@H]1Cc2ccc(F)c(C(=O)O)c2OB1O	> 64 µg/mL
CCN1CCN(C(=O)NC(C(=O)N[C@H]2Cc3cccc(C(=O)O)c3OB2O)c2ccc(O)c(F)c2F)C(=O)C1=O (stereo partly drawn)	1 to 2 µg/mL
CCN1CCN(C(=O)NC(C(=O)N[C@H]2Cc3cccc(C(=O)O)c3OB2O)c2ccc(C(=O)O)c(O)c2)C(=O)C1=O (stereo partly drawn)	1 to 2 µg/mL
CCN1CCN(C(=O)NC(C(=O)N[C@H]2Cc3ccc(CO)c(C(=O)O)c3OB2O)c2csc(N)n2)C(O)C1=O (stereo partly drawn)	> 64 µg/mL
NCCN1CCN(C(=O)N[C@H](C(=O)N[C@H]2Cc3cccc(C(=O)O)c3OB2O)c2cccc(NS(N)(=O)=O)c2)C(=O)C1=O (single isomer, unassigned)	> 64 µg/mL
O=C(Nc1ccccc1)NC(C(=O)N[C@H]1Cc2ccc(F)c(C(=O)O)c2OB1O)c1ncc(O)cc1F (stereo partly drawn)	16 to 32 µg/mL
NCCN1CCN(C(=O)N[C@@H](C(=O)N[C@H]2Cc3cccc(C(=O)O)c3OB2O)c2ccc(O)cc2Cl)C(=O)C1=O (single isomer, unassigned)	4 to 8 µg/mL
NCCN1CCN(C(=O)N[C@H](C(=O)N[C@H]2Cc3cccc(C(=O)O)c3OB2O)c2c(F)cc(O)cc2F)C(=O)C1=O (single isomer, unassigned)	> 64 µg/mL
Nc1nc(C(NC(=O)N2CCN(CCNC(=O)c3ccc(O)c(O)c3Cl)C(=O)C2=O)C(=O)N[C@H]2Cc3ccc(F)c(C(=O)O)c3OB2O)c(F)s1 (stereo partly drawn)	4 to 8 µg/mL
NCCCN1CCN(C(=O)N[C@H](C(=O)N[C@H]2Cc3ccc(F)c(C(=O)O)c3OB2O)c2ccc(O)c(O)c2Cl)C(=O)C1=O (single isomer, unassigned)	> 64 µg/mL
NS(=O)(=O)Nc1cccc(C(NC(=O)N2CCN(CCF)C(=O)C2=O)C(=O)N[C@H]2Cc3cccc(C(=O)O)c3OB2O)c1 (stereo partly drawn)	4 to 8 µg/mL
